# System: HIV infected lymphocyte derived CEM cells
# assay-info: Cellular infection assay in CEM cells, XTT cytopathic procedure (EC50)
# test-context: CEM cells; TC50/EC50
Listing of recorded TI (therapeutic index, TC50/EC50) by entry.

- molecule: "Cc1cc(SC2=C(O)CC(CCc3ccsc3)(C(C)C)OC2=O)c(C(C)(C)C)cc1CO (centres unmarked) [Example 7]"
  target: "HIV infected lymphocyte derived CEM cells"
  TI (therapeutic index, TC50/EC50): 366
- molecule: "Cc1cc(SC2=C(O)C[C@@](CCc3ccc(O)cc3)(C(C)C)OC2=O)c(C(C)C)c2sc(N)nc12 [Example 18]"
  target: "HIV infected lymphocyte derived CEM cells"
  TI (therapeutic index, TC50/EC50): 105
- molecule: "Cc1csc(CCC2(C(C)C)CC(O)=C(Sc3cc(C)c(CO)cc3C(C)(C)C)C(=O)O2)n1 (centres unmarked) [Example 26]"
  target: "HIV infected lymphocyte derived CEM cells"
  TI (therapeutic index, TC50/EC50): 213
- molecule: "CC(C)c1cc2nc(N)sc2cc1SC1=C(O)C[C@@](CCc2ccccc2)(C(C)C)OC1=O [Example 14]"
  target: "HIV infected lymphocyte derived CEM cells"
  TI (therapeutic index, TC50/EC50): 30
- molecule: "Cc1cc(SC2=C(O)CC(CCc3ccoc3)(C(C)C)OC2=O)c(C(C)(C)C)cc1CO (centres unmarked) [Example 4]"
  target: "HIV infected lymphocyte derived CEM cells"
  TI (therapeutic index, TC50/EC50): 199
- molecule: "Cc1cc(SC2=C(O)CC(CCc3ccco3)(C(C)C)OC2=O)c(C(C)(C)C)cc1CO (centres unmarked) [Example 5]"
  target: "HIV infected lymphocyte derived CEM cells"
  TI (therapeutic index, TC50/EC50): 253
- molecule: "Cc1cc(SC2=C(O)CC(CCc3nccs3)(C(C)C)OC2=O)c(C(C)(C)C)cc1CO (centres unmarked) [Example 25]"
  target: "HIV infected lymphocyte derived CEM cells"
  TI (therapeutic index, TC50/EC50): 308
- molecule: "CC(C)C1(CCc2ccsc2)CC(O)=C(Sc2cc3sc(N)nc3cc2C(C)(C)C)C(=O)O1 (racemic) [Example 82]"
  target: "HIV infected lymphocyte derived CEM cells"
  TI (therapeutic index, TC50/EC50): 109

---

# assay-info: Rat blood levels after IV dosing
# Format: in vivo
# test-context: plasma, rats, IV dose of 10 mg/kg
Listing of recorded C0 by entry.

- compound: "Cc1cc(SC2=C(O)CC(CCc3ccc(N)cc3)(C(C)C)OC2=O)c(C(C)(C)C)cc1CO (stereo not drawn) [Reference Agent 1, reference compound]"
  C0 (µM): 86
- compound: "Cc1cc(SC2=C(O)CC(CCc3nccs3)(C(C)C)OC2=O)c(C(C)(C)C)cc1CO (stereo not drawn) [Example 25]"
  C0 (µM): 120
- compound: "Cc1cc(SC2=C(O)C[C@@](CCc3ccsc3)(C(C)C)OC2=O)c(C(C)(C)C)cc1CO [Example 12]"
  C0 (µM): 160
- compound: "CC(C)C1(CCc2ccccc2CO)CC(O)=C(Sc2cc3cc[nH]c3cc2C(C)(C)C)C(=O)O1 (racemic) [Example 69]"
  C0 (µM): 335
- compound: "CC(C)[C@]1(CCc2cccc(F)c2)CC(O)=C(Sc2cc3sc(N)nc3cc2C(C)(C)C)C(=O)O1 [Example 83]"
  C0 (µM): 199
- compound: "Cc1cc(SC2=C(O)CC(CCc3ccc(O)cc3)(C(C)C)OC2=O)c(C(C)(C)C)cc1CO (stereo not drawn) [Reference Agent 2, reference compound]"
  C0 (µM): 100

---

# assay-info: Rat blood levels after oral dosing
# Assay type: in vivo
# test-context: male, plasma, rats, oral dose of 10 mg/kg, read-out: T 1/2 (half life) (converted)
# Experimental: The procedure for pharmacokinetics analysis in dogs and rats was similar. For dog studies, two dogs received a single oral 10 mg/kg dose of the HIV protease inhibitor as a solution. […] Plasma samples were analyzed for the HIV protease inhibitor using a HPLC procedure. The method involved plasma protein precipitation with acetonitrile, reverse-phase chromatographic separation of the HIV protease inhibitor and internal standard, and quantitation by UV detection. […]
Listing of recorded log10 half-life by entry.
observed-property: log10 half-life (log10 of the value in h)

- compound: "CC(C)[C@]1(CCc2ccccc2)CC(O)=C(Sc2cc3sc(N)nc3cc2C(C)(C)C)C(=O)O1"
  log10 half-life: 0.93
- compound: "Cc1cc(SC2=C(O)C[C@@](CCc3ccsc3)(C(C)C)OC2=O)c(C(C)(C)C)cc1CO"
  log10 half-life: 1.06
- compound: "Cc1cc(SC2=C(O)CC(CCc3nccs3)(C(C)C)OC2=O)c(C(C)(C)C)cc1CO (centres unmarked)"
  log10 half-life: 1.08
- compound: "Cc1cc(SC2=C(O)CC(CCc3ccc(O)cc3)(C(C)C)OC2=O)c(C(C)(C)C)cc1CO (centres unmarked) [Reference Agent 2, reference compound]"
  log10 half-life: -0.26
- compound: "Cc1cc(SC2=C(O)CC(CCc3ccc(N)cc3)(C(C)C)OC2=O)c(C(C)(C)C)cc1CO (centres unmarked) [Reference Agent 1, reference compound]"
  log10 half-life: 0.53

---

# Test system: HIV infected lymphocyte derived CEM cells
# assay-info: Cellular infection assay in CEM cells, XTT cytopathic procedure (EC50)
# test-context: CEM cells; TC50/EC50
observed-property: TI (therapeutic index, TC50/EC50)

- molecule: "Cc1cnc(CCC2(C(C)C)CC(O)=C(Sc3cc(C)c(CO)cc3C(C)(C)C)C(=O)O2)s1 (racemic)"
  observed-property: "TI (therapeutic index, TC50/EC50)"
  measurement-qualifier: "="
  measured-number: 120
- molecule: "Cc1cc(SC2=C(O)CC(CCc3cncnc3)(C(C)C)OC2=O)c(C(C)(C)C)cc1CO (racemic)"
  observed-property: "TI (therapeutic index, TC50/EC50)"
  measurement-qualifier: ">"
  measured-number: 159
- molecule: "CC(C)C1(CCc2ccccc2CO)CC(O)=C(Sc2cc3cc[nH]c3cc2C(C)(C)C)C(=O)O1 (racemic)"
  observed-property: "TI (therapeutic index, TC50/EC50)"
  measurement-qualifier: "="
  measured-number: 306
- molecule: "Cc1cc(SC2=C(O)CC(CCc3ccc(O)cc3)(C(C)C)OC2=O)c(C(C)(C)C)cc1CO (centres unmarked) [Reference Agent 2, reference compound]"
  observed-property: "TI (therapeutic index, TC50/EC50)"
  measurement-qualifier: ">"
  measured-number: 166
- molecule: "Cc1cc(SC2=C(O)CC(CCc3csc(N)n3)(C(C)C)OC2=O)c(C(C)(C)C)cc1CO (racemic)"
  observed-property: "TI (therapeutic index, TC50/EC50)"
  measurement-qualifier: ">"
  measured-number: 57
- molecule: "Cc1cc(SC2=C(O)CC(CCc3csc(CO)c3)(C(C)C)OC2=O)c(C(C)(C)C)cc1CO (centres unmarked)"
  observed-property: "TI (therapeutic index, TC50/EC50)"
  measurement-qualifier: "="
  measured-number: 117
- molecule: "Cc1cc(SC2=C(O)CC(CCc3ccncc3)(C(C)C)OC2=O)c(C(C)(C)C)cc1CO (centres unmarked)"
  observed-property: "TI (therapeutic index, TC50/EC50)"
  measurement-qualifier: "="
  measured-number: 197
- molecule: "Cc1cc(SC2=C(O)CC(CCc3cc[nH]n3)(C(C)C)OC2=O)c(C(C)(C)C)cc1CO (racemic)"
  observed-property: "TI (therapeutic index, TC50/EC50)"
  measurement-qualifier: ">"
  measured-number: 57
- molecule: "CC(C)[C@]1(CCc2ccccc2)CC(O)=C(Sc2cc3sc(N)nc3cc2C(C)(C)C)C(=O)O1"
  observed-property: "TI (therapeutic index, TC50/EC50)"
  measurement-qualifier: "="
  measured-number: 152
- molecule: "Cc1cc(SC2=C(O)CC(CCc3scnc3C(C)C)(C(C)C)OC2=O)c(C(C)(C)C)cc1CO (racemic)"
  observed-property: "TI (therapeutic index, TC50/EC50)"
  measurement-qualifier: "="
  measured-number: 72
- molecule: "Cc1cc(SC2=C(O)CC(CCc3cccs3)(C(C)C)OC2=O)c(C(C)(C)C)cc1CO (centres unmarked)"
  observed-property: "TI (therapeutic index, TC50/EC50)"
  measurement-qualifier: "="
  measured-number: 161

---

Listing of recorded CC50 by entry.
# assay-info: Cellular toxicity in uninfected CEM cells, XTT (TC50)
# test-context: human, uninfected CEM cells (lymphocyte derived)

- compound: "Cc1cc(SC2=C(O)CC(CCC3CCCO3)(C(C)C)OC2=O)c(C(C)(C)C)cc1N (racemic)"
  measurement-qualifier: "="
  CC50 [µM]: 210
- compound: "CC(C)c1cc2nc(N)sc2cc1SC1=C(O)C[C@@](CCc2ccccc2)(C(C)C)OC1=O"
  measurement-qualifier: "="
  CC50 [µM]: 75
- compound: "Cc1cc(SC2=C(O)CC(CCc3ccc(N)cc3)(C(C)C)OC2=O)c(C(C)(C)C)cc1CO (centres unmarked) [Reference Agent 1, reference compound]"
  measurement-qualifier: ">"
  CC50 [µM]: 100
- compound: "CC(C)C1(CCc2ccccc2CO)CC(O)=C(Sc2cc3cc[nH]c3cc2C(C)(C)C)C(=O)O1 (racemic)"
  measurement-qualifier: "="
  CC50 [µM]: 55
- compound: "Cc1cc(SC2=C(O)CC(CCc3ccncc3)(C(C)C)OC2=O)c(C(C)(C)C)cc1CO (centres unmarked)"
  measurement-qualifier: "="
  CC50 [µM]: 296
- compound: "Cc1cc(SC2=C(O)C[C@@](CCc3ccc(O)cc3)(C(C)C)OC2=O)c(C(C)C)c2sc(N)nc12"
  measurement-qualifier: "="
  CC50 [µM]: 117
- compound: "Cc1cc(SC2=C(O)CC(CCc3ccc(CO)s3)(C(C)C)OC2=O)c(C(C)(C)C)cc1N (racemic)"
  measurement-qualifier: "="
  CC50 [µM]: 124
- compound: "CC(C)C1(CCc2ccsc2)CC(O)=C(Sc2cc3sc(N)nc3cc2C(C)(C)C)C(=O)O1 (racemic)"
  measurement-qualifier: "="
  CC50 [µM]: 76
- compound: "CC(C)[C@]1(CCc2ccccc2)CC(O)=C(Sc2cc3sc(NS(C)(=O)=O)nc3cc2C(C)(C)C)C(=O)O1"
  measurement-qualifier: "="
  CC50 [µM]: 125
- compound: "Cc1cc(SC2=C(O)CC(CCc3scnc3C(C)C)(C(C)C)OC2=O)c(C(C)(C)C)cc1CO (racemic)"
  measurement-qualifier: "="
  CC50 [µM]: 101
- compound: "Cc1cnc(CCC2(C(C)C)CC(O)=C(Sc3cc(C)c(CO)cc3C(C)(C)C)C(=O)O2)s1 (racemic)"
  measurement-qualifier: "="
  CC50 [µM]: 229
- compound: "Cc1cc(SC2=C(O)CC(CCc3sccc3C)(C(C)C)OC2=O)c(C(C)(C)C)cc1N (racemic)"
  measurement-qualifier: "="
  CC50 [µM]: 60
- compound: "Cc1cc(SC2=C(O)CC(CCc3ccc4[nH]ccc4c3)(C(C)C)OC2=O)c(C(C)(C)C)cc1CO (racemic)"
  measurement-qualifier: "="
  CC50 [µM]: 46
- compound: "Cc1cc(SC2=C(O)C[C@@](CCc3ccccc3)(C(C)C)OC2=O)c(C(C)C)c2sc(N)nc12"
  measurement-qualifier: "="
  CC50 [µM]: 42
- compound: "Cc1cc(SC2=C(O)CC(CCc3scnc3C)(C(C)C)OC2=O)c(C(C)(C)C)cc1CO (centres unmarked)"
  measurement-qualifier: "="
  CC50 [µM]: 164
- compound: "Cc1cc(SC2=C(O)CC(CCc3ccc(O)cc3)(C(C)C)OC2=O)c(C(C)(C)C)cc1CO (centres unmarked) [Reference Agent 2, reference compound]"
  measurement-qualifier: ">"
  CC50 [µM]: 100
- compound: "Cc1cc(SC2=C(O)CC(CCc3csc(CO)c3)(C(C)C)OC2=O)c(C(C)(C)C)cc1CO (centres unmarked)"
  measurement-qualifier: "="
  CC50 [µM]: 210
- compound: "Cc1csc(CCC2(C(C)C)CC(O)=C(Sc3cc(C)c(CO)cc3C(C)(C)C)C(=O)O2)n1 (centres unmarked)"
  measurement-qualifier: "="
  CC50 [µM]: 171
- compound: "Cc1cc(SC2=C(O)CC(CCc3ccsc3CO)(C(C)C)OC2=O)c(C(C)(C)C)cc1N (centres unmarked)"
  measurement-qualifier: "="
  CC50 [µM]: 133
- compound: "Cc1cc(SC2=C(O)CC(CCc3cncnc3)(C(C)C)OC2=O)c(C(C)(C)C)cc1CO (racemic)"
  measurement-qualifier: ">"
  CC50 [µM]: 200
- compound: "Cc1cc(SC2=C(O)CC(CCc3ccc(CO)s3)(C(C)C)OC2=O)c(C(C)(C)C)cc1O (racemic)"
  measurement-qualifier: "="
  CC50 [µM]: 100
- compound: "Cc1cc(SC2=C(O)CC(CCc3ccsc3)(C(C)C)OC2=O)c(C(C)(C)C)cc1NS(=O)(=O)c1ccc(C(F)(F)F)cn1 (racemic)"
  measurement-qualifier: "="
  CC50 [µM]: 66
- compound: "Cc1cc(SC2=C(O)CC(CCc3ccsc3)(C(C)C)OC2=O)c(C(C)(C)C)cc1CO (centres unmarked)"
  measurement-qualifier: "="
  CC50 [µM]: 110
- compound: "Cc1cc(SC2=C(O)CC(CCc3cccs3)(C(C)C)OC2=O)c(C(C)(C)C)cc1CO (centres unmarked)"
  measurement-qualifier: "="
  CC50 [µM]: 80.5
- compound: "CC(C)[C@]1(CCc2cccc(F)c2)CC(O)=C(Sc2cc3sc(N)nc3cc2C(C)(C)C)C(=O)O1"
  measurement-qualifier: "="
  CC50 [µM]: 61
- compound: "Cc1ccc(C(C)(C)C)c(SC2=C(O)CC(CCc3ccc(CO)s3)(C(C)C)OC2=O)c1 (racemic)"
  measurement-qualifier: "="
  CC50 [µM]: 66
- compound: "CC(C)C1(CCc2ccccc2CO)CC(O)=C(Sc2sc3ccccc3c2C(C)(C)C)C(=O)O1 (centres unmarked)"
  measurement-qualifier: "="
  CC50 [µM]: 66
- compound: "Cc1cc(SC2=C(O)CC(CCc3ccoc3)(C(C)C)OC2=O)c(C(C)(C)C)cc1CO (centres unmarked)"
  measurement-qualifier: "="
  CC50 [µM]: 199
- compound: "Cc1cc(SC2=C(O)CC(CCc3cc[nH]n3)(C(C)C)OC2=O)c(C(C)(C)C)cc1CO (racemic)"
  measurement-qualifier: ">"
  CC50 [µM]: 320
